System: osteosarcoma cell line SJSA-1
assay-name: Cell viability (MTT) assay, SJSA-1
Assay type: cell-based
test-settings: 100 µM
recorded-endpoint: Viability of Cells (% of Control)

Example cases with answers are listed next.
structure-smiles	Viability of Cells (% of Control)
C[C@H](CC(=O)C[C@@H](C)[C@H]1C[C@H](O)[C@@]2(C)C3=C(C(=O)C[C@]12C)[C@@]1(C)CCC(=O)C(C)(C)[C@@H]1C[C@@H]3O)C(=O)N1CCN(C)CC1	77.6 ± 3.5 % of Control
C[C@H](CC(=O)C[C@@H](C)[C@H]1C[C@H](O)[C@@]2(C)C3=C(C(=O)C[C@]12C)[C@@]1(C)CCC(=O)C(C)(C)[C@@H]1C[C@@H]3O)C(=O)NCc1ccc(Cl)cc1	77.1 ± 4.6 % of Control

Value sought: Viability of Cells (% of Control), system osteosarcoma cell line SJSA-1, item "C[C@H](CC(=O)C[C@@H](C)[C@H]1C[C@H](O)[C@@]2(C)C3=C(C(=O)C[C@]12C)[C@@]1(C)CCC(=O)C(C)(C)[C@@H]1C[C@@H]3O)C(=O)NCCc1ccc(F)cc1" . Result: 41.9 ± 3.1 % of Control

Record "C[C@H](CC(=O)C[C@@H](C)[C@H]1C[C@H](O)[C@@]2(C)C3=C(C(=O)C[C@]12C)[C@@]1(C)CCC(=O)C(C)(C)[C@@H]1C[C@@H]3O)C(=O)NC1Cc2ccccc2C1" ; system osteosarcoma cell line SJSA-1; Viability of Cells (% of Control) = 89.6 ± 3.8 % of Control

The observed Viability of Cells (% of Control) for "C[C@H](CC(=O)C[C@@H](C)[C@H]1C[C@H](O)[C@@]2(C)C3=C(C(=O)C[C@]12C)[C@@]1(C)CCC(=O)C(C)(C)[C@@H]1C[C@@H]3O)C(=O)NCc1cc(Cl)cc(Cl)c1" when tested with osteosarcoma cell line SJSA-1 stands at 80.4 ± 4.7 % of Control
